The following molecules are listed with their measured TGI values.
System: HCT-116 colon
ASSAY DETAILS: NCI tumour cell line growth inhibition, 48 h
QUANTITY NAME: TGI

{"columns": ["MOLECULE", "ENDPOINT VALUE"],
 "data": [
  ["CCc1[nH]nc(C(N)=O)c1N=NN(C)C", "> 100 µM"],
  ["O=[N+]([O-])c1ccc(N=Nc2c(Cl)cc(O)cc2Cl)cc1", "3.08 µM"],
  ["CC(=O)OC1=C2CC[C@@H]3C(CC[C@@]4(C)C3CC[C@@H]4OC(C)=O)[C@@]2(C)CC(C#N)C1=O (stereo partly specified)", "> 100 µM"],
  ["COc1ccccc1NC(=O)CC(=O)n1nc(C)c(N=Nc2ccccc2Cl)c1C", "> 100 µM"],
  ["CCOC(=O)CNC(=O)OCc1ccccc1", "> 100 µM"],
  ["C[N+](C)(C)C1CC([N+](C)(C)C)C2c3ccccc3C21 (stereo unspecified)", "> 100 µM"],
  ["CC(=O)NCc1c(C(N)=O)ncn1Cc1ccccc1", "> 100 µM"],
  ["COc1ccc(CNCCCN2C(=O)c3ccc4c5c(ccc(c35)C2=O)C(=O)N(CCCNCc2ccc(OC)c(OC)c2OC)C4=O)c(OC)c1OC", "0.169 µM"],
  ["CS(=O)(=O)NNS(=O)(=O)c1ccc(F)cc1", "> 100 µM"],
  ["COc1ccccc1/C=N/Nc1nnc2c3ccccc3c3ncccc3c2n1", "> 100 µM"],
  ["COC(=O)/C=C\\C(C#N)(C#N)N=Cc1cccs1", "> 50.2 µM"]
]}
